Every entry's value here was drawn from the supplement of paper PMC10567573.

Hi there, I'd appreciate the recorded protein stability index for every entry that follows.
B1: SLC35F2 (parent)
chain: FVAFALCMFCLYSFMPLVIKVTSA

Variants of: B1
test: protein stability index of a GFP-peptide fusion (GPS, HEK-293T) (PSI 1-6); higher = more stable;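 also: lentivirally expressed fusions sorted by FACS into six bins by GFP to DsRed ratio, PSI derived from sequencing read proportions per bin multiplied by bin number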
setup-conditions: c terminus: a fixed tail appended
Give the figure by itself; no unit, no explanation.

What measured protein stability index goes with FVAFALCMFCLYSTMPLVIKVTSA [F14T] ?
2.91

Given the variant FVAFALCMFCVYSFMPLVIKVTSA [L11V] , what is its reported protein stability index?
3

Please look up its protein stability index: FVAFALCMFCLYSFMPLSIKVTSA [V18S]
2.91
